Listed below: Potency values for each entry.
experimental_system: Dual specificity protein kinase CLK1 (Homo sapiens)
test_method_notes: Reaction Biology data for inhibitors of CLK1: Probe SAR
condition_set: Reaction Biology CLK1 kinase assay, 10 uM ATP; series mostly up to 10 µM
Calls of active or inactive are those of the source. The call rests on the fitted dose curve; in most records, active means well fitted inhibition curve with a large enough effect; inactive means flat fitted curve, though single readings scatter.
reported_metric: Potency

1. Clc1ccc(CNc2nccc(-c3ccc4cn[nH]c4c3)n2)cc1Cl; 183 nM (active)
2. c1nc(NCC2CCCO2)c2cc(-c3ccc4c(c3)OCO4)ccc2n1 (configuration not stated); 52.8 nM (active)
3. Clc1ccc(CNc2nccc(-c3ccc4c(c3)OCCO4)n2)cc1Cl; 15.8 nM (active)
4. Clc1ccc(CNc2ccnc(-c3ccc4[nH]ncc4c3)n2)cc1Cl; 1780 nM (active)
5. Cc1c(-c2ccnc(NCc3ccc(Cl)cc3)n2)sc(=O)n1C; 74.8 nM (active)
6. FC(F)(F)c1cc(Br)cc(Nc2nccc(-c3ccc4c(c3)OCO4)n2)c1; 102 nM (active)
7. Clc1cc(Cl)cc(CNc2ncncc2-c2ccc3c(c2)OCO3)c1; 68.4 nM (active)
